Experiment: Hematology assays in cynomolgus monkeys (Example 45)
Type: in vivo
Conditions: day 43
// reported neutrophils per item
readout_type: neutrophils (%)

{"substance": "ISIS 416858: MOE gapmer, nucleobases 1275 to 1318 of SEQ ID NO: 1 (Table 8) (antisense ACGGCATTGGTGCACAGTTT; MOE gapmer, wing and gap sizes not given here)", "reading_unit": "%", "numeric_result": 45}
{"substance": "ISIS 416864: MOE gapmer, nucleobases 1275 to 1318 of SEQ ID NO: 1 (Table 8) (antisense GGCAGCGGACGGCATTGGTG; MOE gapmer, wing and gap sizes not given here)", "reading_unit": "%", "numeric_result": 57}
{"substance": "ISIS 416838: MOE gapmer, nucleobases 1018 to 1042 of SEQ ID NO: 1 (Table 6) (antisense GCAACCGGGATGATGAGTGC; MOE gapmer, wing and gap sizes not given here)", "reading_unit": "%", "numeric_result": 30}

====

// reported hemoglobin per item
Experiment: Hematology assays in cynomolgus monkeys (Example 45)
Format: in vivo
Conditions: day 57; escalating dose regimen
readout_type: hemoglobin (g/dL)

{"substance": "ISIS 416864: MOE gapmer, nucleobases 1275 to 1318 of SEQ ID NO: 1 (Table 8) (antisense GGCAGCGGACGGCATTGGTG; MOE gapmer, wing and gap sizes not given here)", "readout_type": "hemoglobin", "numeric_result": 12.3}
{"substance": "ISIS 416838: MOE gapmer, nucleobases 1018 to 1042 of SEQ ID NO: 1 (Table 6) (antisense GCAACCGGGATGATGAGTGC; MOE gapmer, wing and gap sizes not given here)", "readout_type": "hemoglobin", "numeric_result": 12.6}
{"substance": "ISIS 417002: MOE gapmer, nucleobases 1275 to 1318 of SEQ ID NO: 1 (Table 8) (antisense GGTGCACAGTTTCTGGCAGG; MOE gapmer, wing and gap sizes not given here)", "readout_type": "hemoglobin", "numeric_result": 11.3}
{"substance": "ISIS 416858: MOE gapmer, nucleobases 1275 to 1318 of SEQ ID NO: 1 (Table 8) (antisense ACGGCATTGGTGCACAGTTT; MOE gapmer, wing and gap sizes not given here)", "readout_type": "hemoglobin", "numeric_result": 12.7}
{"substance": "ISIS 416850: MOE gapmer, nucleobases 1275 to 1318 of SEQ ID NO: 1 (Table 8) (antisense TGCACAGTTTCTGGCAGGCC; MOE gapmer, wing and gap sizes not given here)", "readout_type": "hemoglobin", "numeric_result": 12.1}

====

Test: Hematology assays in cynomolgus monkeys (Example 45)
Type: in vivo
Conditions: day 78
Description: Groups, each consisting of two male and three female monkeys, were injected subcutaneously with ISIS 416838, ISIS 416850, ISIS 416858, ISIS 416864, or ISIS 417002 in escalating doses. […] Body weights were measured weekly. […]
Response field label takes criterion met when platelet count is strictly below 400000 µL⁻¹ and criterion not met in all other cases.

{"substance": "ISIS 416850: MOE gapmer, nucleobases 1275 to 1318 of SEQ ID NO: 1 (Table 8) (antisense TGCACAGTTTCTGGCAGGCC; MOE gapmer, wing and gap sizes not given here)", "class_label": "criterion not met"}
{"substance": "ISIS 416864: MOE gapmer, nucleobases 1275 to 1318 of SEQ ID NO: 1 (Table 8) (antisense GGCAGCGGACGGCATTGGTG; MOE gapmer, wing and gap sizes not given here)", "class_label": "criterion met"}
{"substance": "ISIS 416838: MOE gapmer, nucleobases 1018 to 1042 of SEQ ID NO: 1 (Table 6) (antisense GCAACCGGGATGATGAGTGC; MOE gapmer, wing and gap sizes not given here)", "class_label": "criterion met"}
{"substance": "ISIS 417002: MOE gapmer, nucleobases 1275 to 1318 of SEQ ID NO: 1 (Table 8) (antisense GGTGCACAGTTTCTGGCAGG; MOE gapmer, wing and gap sizes not given here)", "class_label": "criterion not met"}
{"substance": "ISIS 416858: MOE gapmer, nucleobases 1275 to 1318 of SEQ ID NO: 1 (Table 8) (antisense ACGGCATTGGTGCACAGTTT; MOE gapmer, wing and gap sizes not given here)", "class_label": "criterion met"}

====

Conditions: rat, in vivo, sc, 50 mg/kg
e = 2'-O-(2-methoxyethyl) (MOE); d = 2'-deoxy (DNA)
readout_type: HCT

{"substance": "ISIS 445504: 5-8-5 or 6-8-6 MOE microwalk gapmer (Table 44) (antisense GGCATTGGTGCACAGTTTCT; sugars from the 5' end e6 d8 e6, backbone and methylation of C not given here)", "result": "50%"}
{"substance": "ISIS 445498: 5-8-5 or 6-8-6 MOE microwalk gapmer (Table 44) (antisense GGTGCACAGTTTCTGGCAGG; sugars from the 5' end e6 d8 e6, backbone and methylation of C not given here)", "result": "49%"}
{"substance": "ISIS 445530: 5-8-5 or 6-8-6 MOE microwalk gapmer (Table 44) (antisense GCATTGGTGCACAGTTTC; sugars from the 5' end e5 d8 e5, backbone and methylation of C not given here)", "result": "50%"}
{"substance": "ISIS 445505: 5-8-5 or 6-8-6 MOE microwalk gapmer (Table 44) (antisense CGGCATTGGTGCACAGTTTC; sugars from the 5' end e6 d8 e6, backbone and methylation of C not given here)", "result": "50%"}
{"substance": "ISIS 445509: 5-8-5 or 6-8-6 MOE microwalk gapmer (Table 44) (antisense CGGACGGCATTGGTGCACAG; sugars from the 5' end e6 d8 e6, backbone and methylation of C not given here)", "result": "47%"}
{"substance": "ISIS 445513: 5-8-5 or 6-8-6 MOE microwalk gapmer (Table 44) (antisense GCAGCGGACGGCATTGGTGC; sugars from the 5' end e6 d8 e6, backbone and methylation of C not given here)", "result": "44%"}

====

Experiment: Hematology assays in cynomolgus monkeys (Example 45)
Type: in vivo
Settings: day 78

{"substance": "ISIS 416838: MOE gapmer, nucleobases 1018 to 1042 of SEQ ID NO: 1 (Table 6) (antisense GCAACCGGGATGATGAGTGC; MOE gapmer, wing and gap sizes not given here)", "monocytes / %": 3.6}
{"substance": "ISIS 416858: MOE gapmer, nucleobases 1275 to 1318 of SEQ ID NO: 1 (Table 8) (antisense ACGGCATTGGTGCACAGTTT; MOE gapmer, wing and gap sizes not given here)", "monocytes / %": 4.9}
{"substance": "ISIS 416864: MOE gapmer, nucleobases 1275 to 1318 of SEQ ID NO: 1 (Table 8) (antisense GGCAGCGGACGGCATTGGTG; MOE gapmer, wing and gap sizes not given here)", "monocytes / %": 3.7}
{"substance": "ISIS 417002: MOE gapmer, nucleobases 1275 to 1318 of SEQ ID NO: 1 (Table 8) (antisense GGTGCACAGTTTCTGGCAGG; MOE gapmer, wing and gap sizes not given here)", "monocytes / %": 4.7}

====

// reported Creatinine per item
Conditions: rat, in vivo, sc, 50 mg/kg
e = 2'-O-(2-methoxyethyl) (MOE); d = 2'-deoxy (DNA)
readout_type: Creatinine (mg/dL)

{"substance": "ISIS 416892: 3-14-3 MOE gapmer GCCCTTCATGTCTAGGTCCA (sugars from the 5' end e3 d14 e3, backbone and methylation of C not given here)", "numeric_result": 1}
{"substance": "ISIS 416825: 5-10-5 MOE gapmer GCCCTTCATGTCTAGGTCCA (sugars from the 5' end e5 d10 e5, backbone and methylation of C not given here)", "numeric_result": 17}
{"substance": "ISIS 416925: MOE gapmer, nucleobases 1275 to 1318 of SEQ ID NO: 1 (Table 8) (antisense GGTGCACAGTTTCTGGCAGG; MOE gapmer, wing and gap sizes not given here)", "numeric_result": 5}
{"substance": "ISIS 416999: MOE gapmer, nucleobases 1275 to 1318 of SEQ ID NO: 1 (Table 8) (antisense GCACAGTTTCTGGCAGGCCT; MOE gapmer, wing and gap sizes not given here)", "numeric_result": 4}
{"substance": "ISIS 416826: 5-10-5 MOE gapmer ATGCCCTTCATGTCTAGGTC (sugars from the 5' end e5 d10 e5, backbone and methylation of C not given here)", "numeric_result": 6}
{"substance": "ISIS 417003: MOE gapmer, nucleobases 1275 to 1318 of SEQ ID NO: 1 (Table 8) (antisense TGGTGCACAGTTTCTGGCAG; MOE gapmer, wing and gap sizes not given here)", "numeric_result": 9}

====

Experiment: Tolerability in CD1 mice: liver function, ALT, AST, bilirubin, albumin (Example 33)
Settings: plasma, 50 mg/kg s.c. twice a week, 6 weeks
readout_type: log10(ALT) (log10 of the value in IU/L)

{"substance": "ISIS 417002: MOE gapmer, nucleobases 1275 to 1318 of SEQ ID NO: 1 (Table 8) (antisense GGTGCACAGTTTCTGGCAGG; MOE gapmer, wing and gap sizes not given here)", "log10(ALT)": 3.41}
{"substance": "ISIS 416838: MOE gapmer, nucleobases 1018 to 1042 of SEQ ID NO: 1 (Table 6) (antisense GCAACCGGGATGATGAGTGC; MOE gapmer, wing and gap sizes not given here)", "log10(ALT)": 2.15}
{"substance": "ISIS 416850: MOE gapmer, nucleobases 1275 to 1318 of SEQ ID NO: 1 (Table 8) (antisense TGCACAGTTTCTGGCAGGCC; MOE gapmer, wing and gap sizes not given here)", "log10(ALT)": 2.01}
{"substance": "ISIS 416858: MOE gapmer, nucleobases 1275 to 1318 of SEQ ID NO: 1 (Table 8) (antisense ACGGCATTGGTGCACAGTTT; MOE gapmer, wing and gap sizes not given here)", "log10(ALT)": 2.33}
{"substance": "ISIS 416864: MOE gapmer, nucleobases 1275 to 1318 of SEQ ID NO: 1 (Table 8) (antisense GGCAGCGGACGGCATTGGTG; MOE gapmer, wing and gap sizes not given here)", "log10(ALT)": 1.96}
